Measured values drawn from patent US10231954B2 for this set.

# TARGET SYSTEM: UniProt Q9P289
# Sequence (Q9P289 whole entry, species assumed): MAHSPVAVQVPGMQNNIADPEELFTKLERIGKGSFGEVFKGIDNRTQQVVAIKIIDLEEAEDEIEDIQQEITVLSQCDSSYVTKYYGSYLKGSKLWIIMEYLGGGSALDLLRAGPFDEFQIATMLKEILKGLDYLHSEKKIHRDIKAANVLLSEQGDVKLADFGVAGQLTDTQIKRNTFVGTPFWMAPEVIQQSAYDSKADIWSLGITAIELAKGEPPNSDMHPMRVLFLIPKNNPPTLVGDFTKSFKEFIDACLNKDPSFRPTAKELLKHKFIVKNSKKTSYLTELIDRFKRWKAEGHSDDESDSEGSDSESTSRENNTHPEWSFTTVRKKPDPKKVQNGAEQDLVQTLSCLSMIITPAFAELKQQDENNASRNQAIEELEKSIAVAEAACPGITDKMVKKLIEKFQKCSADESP
# ASSAY COMMENT: Kinase profiling MST4
# Assay type: biochemical
# CONDITIONS USED: 100 micromolar inhibitor concentration; 100 is no change; read-out: residual kinase activity, MST4
ATTRIBUTE MEASURED: remaining activity at 100 µM (%)
Report the value in % with no unit label.

CC(=O)Nc1nc2cc(C(F)(F)F)ccc2s1 [Compound 03-73]; 91

Fill in: remaining activity at 100 µM of CC(=O)Nc1nc2ccc(O)cc2s1 [Compound 01-71] is ___ 70

Fill in: remaining activity at 100 µM of CC(=O)Nc1nc2cc(F)ccc2s1 [Compound 03-77] is ___ 88

Fill in: remaining activity at 100 µM of COc1ccc2sc(NC(C)=O)nc2c1 [Compound 03-21] is ___ 88

Fill in: remaining activity at 100 µM of CC(=O)Nc1nc2ccc(C#N)cc2s1 [Compound 01-94] is ___ 75

Fill in: remaining activity at 100 µM of CC(=O)Nc1nc2ccc(C(F)(F)F)cc2s1 [Compound 01-90] is ___ 89

====

# TARGET SYSTEM: Lck (Homo sapiens)
# Sequence (P06239 whole entry, species assumed): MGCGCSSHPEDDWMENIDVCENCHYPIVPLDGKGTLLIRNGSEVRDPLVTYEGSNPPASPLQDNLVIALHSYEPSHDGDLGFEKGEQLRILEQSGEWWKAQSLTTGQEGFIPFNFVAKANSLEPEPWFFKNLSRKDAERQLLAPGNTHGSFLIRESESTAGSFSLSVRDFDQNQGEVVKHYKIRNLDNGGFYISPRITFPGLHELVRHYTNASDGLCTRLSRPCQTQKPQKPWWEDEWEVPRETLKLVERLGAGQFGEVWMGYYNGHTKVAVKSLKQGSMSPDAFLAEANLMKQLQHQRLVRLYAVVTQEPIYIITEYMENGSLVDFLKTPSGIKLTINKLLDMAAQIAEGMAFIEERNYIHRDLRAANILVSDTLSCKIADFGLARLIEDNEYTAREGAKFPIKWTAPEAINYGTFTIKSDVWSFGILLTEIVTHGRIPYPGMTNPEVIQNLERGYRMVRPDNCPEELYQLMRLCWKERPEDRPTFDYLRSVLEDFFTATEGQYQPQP
# ASSAY COMMENT: Kinase profiling Lck
# Assay type: biochemical
# CONDITIONS USED: 100 micromolar inhibitor concentration; 100 is no change
Here, each record is paired with measured residual kinase activity, Lck data.
Enter a number only.

Known residual kinase activity, Lck results, listed for orientation:
COc1ccc2sc(NC(=O)c3ccccc3)nc2c1; 93
O=C(Nc1nc2ccc(C(F)(F)F)cc2s1)c1ccccc1; 92
COc1ccc2sc(NC(=O)c3cccc(C(N)=O)c3)nc2c1; 111
O=C(Nc1nc2ccc(O)cc2s1)c1ccncc1; 79

Fill in: residual kinase activity, Lck of COC(=O)c1cccc(C(=O)Nc2nc3ccc(F)cc3s2)c1 is ___ 93

Fill in: residual kinase activity, Lck of O=C(Nc1nc2ccc(O)cc2s1)c1ccccn1 is ___ 82

====

# TARGET SYSTEM: SIK3 (Homo sapiens)
# Sequence (Q9Y2K2 whole entry, species assumed): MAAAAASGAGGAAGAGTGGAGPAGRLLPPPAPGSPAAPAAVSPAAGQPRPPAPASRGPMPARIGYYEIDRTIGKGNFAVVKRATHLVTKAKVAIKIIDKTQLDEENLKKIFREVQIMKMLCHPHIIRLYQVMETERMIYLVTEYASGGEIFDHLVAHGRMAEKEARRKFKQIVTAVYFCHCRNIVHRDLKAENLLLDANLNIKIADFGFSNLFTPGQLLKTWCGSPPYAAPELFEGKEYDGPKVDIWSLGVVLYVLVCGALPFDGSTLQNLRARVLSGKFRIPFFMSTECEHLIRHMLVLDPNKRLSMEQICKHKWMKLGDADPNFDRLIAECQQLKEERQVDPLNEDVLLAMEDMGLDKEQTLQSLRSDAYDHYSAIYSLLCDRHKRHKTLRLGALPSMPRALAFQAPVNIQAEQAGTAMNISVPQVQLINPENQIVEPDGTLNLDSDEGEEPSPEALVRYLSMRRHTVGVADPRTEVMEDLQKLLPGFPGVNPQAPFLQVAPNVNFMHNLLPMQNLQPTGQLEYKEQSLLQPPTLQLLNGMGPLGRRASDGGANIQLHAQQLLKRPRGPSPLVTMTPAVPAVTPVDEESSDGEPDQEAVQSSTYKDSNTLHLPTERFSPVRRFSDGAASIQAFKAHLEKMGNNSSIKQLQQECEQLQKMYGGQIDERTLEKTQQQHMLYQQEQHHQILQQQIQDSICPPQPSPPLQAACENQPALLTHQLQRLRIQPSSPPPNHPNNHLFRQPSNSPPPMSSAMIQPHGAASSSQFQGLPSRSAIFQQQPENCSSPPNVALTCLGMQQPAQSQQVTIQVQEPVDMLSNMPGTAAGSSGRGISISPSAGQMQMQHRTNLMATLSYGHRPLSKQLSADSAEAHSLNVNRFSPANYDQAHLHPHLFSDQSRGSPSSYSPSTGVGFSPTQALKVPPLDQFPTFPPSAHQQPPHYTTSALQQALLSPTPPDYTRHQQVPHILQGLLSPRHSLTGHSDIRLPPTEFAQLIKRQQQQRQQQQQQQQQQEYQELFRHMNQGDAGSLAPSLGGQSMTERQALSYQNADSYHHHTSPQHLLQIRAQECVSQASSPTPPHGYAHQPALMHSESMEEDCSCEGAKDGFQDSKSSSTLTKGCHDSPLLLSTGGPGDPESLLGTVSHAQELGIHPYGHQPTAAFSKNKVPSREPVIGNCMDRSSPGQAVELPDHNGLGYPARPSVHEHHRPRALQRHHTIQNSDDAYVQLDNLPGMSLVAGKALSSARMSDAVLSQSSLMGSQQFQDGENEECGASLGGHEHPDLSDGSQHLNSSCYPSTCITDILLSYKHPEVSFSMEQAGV
# ASSAY COMMENT: Kinase profiling SIK3
# Type: biochemical
# CONDITIONS USED: 100 micromolar inhibitor concentration; 100 is no change
Where residual kinase activity, SIK3 equals or exceeds 90, the correct label is t; where it does not, the label is f.

Consider the following illustrative entries.
CC(=O)Nc1nc2cc(C)ccc2s1; t
O=C(Nc1nc2ccc(O)cc2s1)c1cccnc1; f
O=C(Nc1nc2cc(O)ccc2s1)c1ccncc1; t

Check this compound for residual kinase activity, SIK3 at or above 90: O=C(Nc1nc2ccc(O)cc2s1)c1ccccn1 f

Check this compound for residual kinase activity, SIK3 at or above 90: O=C(Nc1nc2ccc(O)cc2s1)c1ccncc1 f

Check this compound for residual kinase activity, SIK3 at or above 90: O=C(Nc1nc2ccc(O)cc2s1)c1ccccc1 f

Check this compound for residual kinase activity, SIK3 at or above 90: O=C(Nc1nc2cc(O)ccc2s1)c1ccccn1 t

====

Here, each record is paired with measured remaining activity at 100 µM data.
# TARGET SYSTEM: PKCz (Homo sapiens)
# Sequence (Q05513 whole entry): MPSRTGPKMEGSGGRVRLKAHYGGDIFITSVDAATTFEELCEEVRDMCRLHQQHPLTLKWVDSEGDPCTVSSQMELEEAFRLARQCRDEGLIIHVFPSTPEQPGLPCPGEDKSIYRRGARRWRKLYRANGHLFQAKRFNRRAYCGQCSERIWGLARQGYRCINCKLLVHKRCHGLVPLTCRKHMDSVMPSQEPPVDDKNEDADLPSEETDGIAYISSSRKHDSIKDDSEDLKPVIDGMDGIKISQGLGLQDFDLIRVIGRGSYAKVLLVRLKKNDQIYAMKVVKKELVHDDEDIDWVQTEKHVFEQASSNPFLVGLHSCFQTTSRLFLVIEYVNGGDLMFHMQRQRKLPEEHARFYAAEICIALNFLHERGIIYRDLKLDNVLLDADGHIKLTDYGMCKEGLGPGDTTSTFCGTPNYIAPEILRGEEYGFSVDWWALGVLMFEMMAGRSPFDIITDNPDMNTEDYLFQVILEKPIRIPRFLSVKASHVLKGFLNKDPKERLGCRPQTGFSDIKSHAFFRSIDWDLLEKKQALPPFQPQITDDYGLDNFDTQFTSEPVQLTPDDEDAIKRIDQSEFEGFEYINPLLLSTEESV
# ASSAY COMMENT: Kinase profiling PKCz
# Format: biochemical
# CONDITIONS USED: 100 micromolar inhibitor concentration; 100 is no change; read-out: residual kinase activity, PKCz
Write the numeric value and append its unit.

CC(=O)Nc1nc2ccc(O)cc2s1; 74%

What measured remaining activity at 100 µM is associated with CC(=O)Nc1nc2cc(F)ccc2s1 on PKCz (Homo sapiens)? 110%

What measured remaining activity at 100 µM is associated with CC(=O)Nc1nc2ccc(C#N)cc2s1 on PKCz (Homo sapiens)? 80%

What measured remaining activity at 100 µM is associated with CC(=O)Nc1nc2cc(C(F)(F)F)ccc2s1 on PKCz (Homo sapiens)? 97%

What measured remaining activity at 100 µM is associated with CC(=O)Nc1nc2ccc(C(F)(F)F)cc2s1 on PKCz (Homo sapiens)? 81%

What measured remaining activity at 100 µM is associated with COc1ccc2sc(NC(C)=O)nc2c1 on PKCz (Homo sapiens)? 85%
